# Test system: Matrigel plugs
# EXPERIMENTAL PROTOCOL: Mouse Matrigel model of angiogenesis (plug hemoglobin)
# Type: in vivo, mice (C57BL/6NCr)
# CONDITION PARAMETERS: FGF 100 ng + compound 10 µg/plug; n= 7-14
EXPERIMENTAL ENDPOINT: Hemoglobin (mg/mL)± SEM

>>> measured_value("CC(C)(C)OC(=O)Cc1cc(I)c(Oc2cc(I)c(O)c(I)c2)c(I)c1")
0.4
>>> measured_value("O=C(Cc1cc(I)c(Oc2cc(I)c(O)c(I)c2)c(I)c1)NC1CCCCC1")
0.2
>>> measured_value("O=C(Cc1cc(I)c(Oc2cc(I)c(OCC3CO3)c(I)c2)c(I)c1)NC1CCCCC1 (centres unmarked)")
0.7
>>> measured_value("CC(C)[Si](OC(=O)Cc1cc(I)c(Oc2cc(I)c(O)c(I)c2)c(I)c1)(C(C)C)C(C)C")
0.2
>>> measured_value("O=C(O)Cc1cc(I)c(Oc2cc(I)c(O)c(I)c2)c(I)c1")
0.5

Taken from patent EP2662079A1.
